experiment: Toxicity liver stage against HepG2, at 10uM; assay type: cell-based; parameters: test concentration 10 uM, cell line HepG2-A16-CD81EGFP; details: human, HepG2-A16-CD81EGFP cells; read-out: INHIBITION
quantity measured: cytotoxicity at 10 µM

Measured cytotoxicity at 10 µM of COc1ccc(C(NC(=O)NCc2nnc3n2CCC3)C2CC2)cc1 (stereo not given) : 11.7%

Measured cytotoxicity at 10 µM of `CCOCCN(CCOCC)c1nc(C)nc2sccc12` : -126%

Measured cytotoxicity at 10 µM of `CCNC(=O)[C@@H]1C[C@@H](NC(=O)c2ccsc2)CN1CCCSC` : -117%

Measured cytotoxicity at 10 µM of `Cc1cc(C)c(OCC(=O)NS(=O)(=O)c2cccnc2)c(C)c1` : -1.35%

Measured cytotoxicity at 10 µM of O=C1CN(C(=O)C2CCCCC2)CC(O)CN1Cc1ccc(Cl)cc1 (stereo not given) : 6.02%

Measured cytotoxicity at 10 µM of O=C(NCCCOC1CCOC1)NC(C1CC1)C1CC1 (stereo not given) : -5.36%

Measured cytotoxicity at 10 µM of `O=C(CCN1CCCCC1)Nc1c2c(cc3c1CCC3)CCC2` : 4.29%

Measured cytotoxicity at 10 µM of CCOC(=O)NC(CNC(=O)c1cc(Cl)ccn1)CC(C)C (stereo not given) : 5.38%

Measured cytotoxicity at 10 µM of `CC(C)c1cc(CSCCC(=O)O)no1` : -7.52%

Measured cytotoxicity at 10 µM of `Cc1ccc(C(=O)N2CCCN(Cc3cccs3)CC2)c(=O)[nH]1` : 1.45%

Measured cytotoxicity at 10 µM of Cc1cc(CN2CCN(CC(O)C(C)(C)C)CC2)no1 (stereo not given) : -14.8%

Measured cytotoxicity at 10 µM of c1ccc2c(c1)ccn2CCCNC1CCOC2(CCOCC2)C1 (stereo not given) : -7.04%

Measured cytotoxicity at 10 µM of `O=c1n(Cc2ccccn2)nc(C2CCNCC2)n1Cc1ccccc1` : 2.69%

Measured cytotoxicity at 10 µM of `Cc1ccc(S(N)(=O)=O)cc1C(=O)N1C[C@@H](CN(C)C)[C@@H](CO)C1` : -0.187%

Measured cytotoxicity at 10 µM of Cc1cc(CC(C)Nc2ncnc3cccc(F)c23)[nH]n1 (stereo not given) : 26.4%

###

Please respond with reported cytotoxicity at 10 µM for every item in the list.
assay: Toxicity liver stage against HepG2, at 10uM; assay type: cell-based; design: test concentration 10 uM, cell line HepG2-A16-CD81EGFP; conditions: human, HepG2-A16-CD81EGFP cells; read-out: INHIBITION
The figure you give is taken to be in %; do not add the unit.

Measured cytotoxicity at 10 µM of `CCc1ccc(CN(CC)Cc2ccc(S(=O)(=O)NC)cc2)cc1` : -8.55

Measured cytotoxicity at 10 µM of `CC(C)n1cnnc1SCCN(C)c1ccccc1` : 2.96

Measured cytotoxicity at 10 µM of CC(=O)NC1CCCN(C(=O)NCc2cc[nH]n2)C1 (configuration not stated) : -11.5

Measured cytotoxicity at 10 µM of Cc1nc(C2CCCN2Cc2nc(C)c(C)o2)no1 (configuration not stated) : -2.53

Measured cytotoxicity at 10 µM of `O=C(N[C@@H]1CN(Cc2ccccc2)C[C@@H]2CCCO[C@@H]21)C1CC1` : -6.12

Measured cytotoxicity at 10 µM of `CCS(=O)(=O)CCNCc1cc(O)c2cc(C)cc(C)c2n1` : 1.36

Measured cytotoxicity at 10 µM of `CS(=O)(=O)N1CCn2c(C(=O)N3CCOCC3)cnc2C1` : -4.63

Measured cytotoxicity at 10 µM of `FC(F)(F)Oc1cccc(CNC[C@H]2Cn3ccnc3CO2)c1` : 2.21

Measured cytotoxicity at 10 µM of O=C1CC(NCc2cnc(C3CCCCC3)nc2)CN1c1ccccc1 (configuration not stated) : -6.8

Measured cytotoxicity at 10 µM of c1csc(-c2noc(CCCN3CCCC3Cn3cncn3)n2)c1 (configuration not stated) : -24.2

Measured cytotoxicity at 10 µM of Cc1cnc(CN2CCCC2c2cnn(C)c2)cn1 (configuration not stated) : 0.35

Measured cytotoxicity at 10 µM of CN1CC(=O)N(c2cccnc2)CC12CCN(C(=O)C1CCCCC1)C2 (configuration not stated) : 1.55

Measured cytotoxicity at 10 µM of CN1C(=O)CC(c2cnn(C)c2)C12CCN(C(=O)c1cscn1)CC2 (configuration not stated) : -76.6

Measured cytotoxicity at 10 µM of CC(C)Oc1cccc(C(=O)C2CCCN(S(=O)(=O)C(C)C)C2)c1 (configuration not stated) : 5.47

Measured cytotoxicity at 10 µM of Cc1ccn2ncc(C(=O)N3CCCC(c4cc(C)[nH]n4)C3)c2n1 (configuration not stated) : -8.02

Measured cytotoxicity at 10 µM of CCN(C(=O)Nc1nccs1)C(C)c1cccc(O)c1 (configuration not stated) : -2.11

Measured cytotoxicity at 10 µM of `CC(C)NC(=O)[C@@H]1C[C@@H](N)CN1C(=O)CCSCc1ccccc1` : 0.719

Measured cytotoxicity at 10 µM of `NCCO[C@H]1C[C@@H](O)C12CCN(Cc1c(F)cccc1F)CC2` : -20

Measured cytotoxicity at 10 µM of Cc1csc(N2CCN(Cc3nnsc3Cl)CC2C)n1 (configuration not stated) : -59.9

Measured cytotoxicity at 10 µM of `CCS(=O)(=O)N1CCC2(CC1)c1ncc(-c3cccnc3)n1CCN2C` : -103

Measured cytotoxicity at 10 µM of NCCC1CN(Cc2cnc3c(-c4ccccc4)cnn3c2)CCO1 (configuration not stated) : -3.92

Measured cytotoxicity at 10 µM of `CCc1ccc(CN2CCN(c3ccc(Cl)nn3)CC2)nc1` : -2.98

Measured cytotoxicity at 10 µM of Cc1nc(CCC(N)=O)cc(C2CCCCN2S(C)(=O)=O)n1 (configuration not stated) : -13

Measured cytotoxicity at 10 µM of O=C(NCc1ccc(Cl)s1)c1cc(CN2CCCC(O)C2)on1 (configuration not stated) : -52.3

Measured cytotoxicity at 10 µM of `CN1CCCc2cc(CNC(=O)c3cccnc3O)ccc21` : -1.68

Measured cytotoxicity at 10 µM of `CCCc1cc(CN(C)C2CC(C)(C)NC(C)(C)C2)n[nH]1` : -16.7

Measured cytotoxicity at 10 µM of Cc1cc(C)n(CC2CCCN2C(=O)CCCNc2ncccn2)n1 (configuration not stated) : -19

Provenance of the data: ChEMBL document CHEMBL4513216
